Just for reference, patent US20160031986A1 is where these values come from.

biological target: cynomolgus monkey DLL4 extracellular domain (cynomolgus monkey); experiment: Biacore SPR
Provide the recorded kon for the entries that follow.
Only the number, expressed in M⁻¹ s⁻¹, is required.

Request: Quick one: kon for h1A11.E12 (antibody, V domains shown) VH: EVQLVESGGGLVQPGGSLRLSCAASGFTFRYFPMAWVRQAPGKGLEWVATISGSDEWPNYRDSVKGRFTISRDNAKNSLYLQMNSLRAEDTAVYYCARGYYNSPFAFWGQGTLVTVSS VL: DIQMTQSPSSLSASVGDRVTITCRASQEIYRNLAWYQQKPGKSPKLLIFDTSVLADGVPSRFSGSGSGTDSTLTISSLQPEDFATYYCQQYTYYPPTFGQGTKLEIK ?
Response: 137000

Request: # repeat for h1A11.A11 (antibody, V domains shown) VH: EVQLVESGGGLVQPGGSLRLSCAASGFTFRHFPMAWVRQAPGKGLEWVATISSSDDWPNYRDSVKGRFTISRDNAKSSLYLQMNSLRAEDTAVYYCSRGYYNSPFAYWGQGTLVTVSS VL: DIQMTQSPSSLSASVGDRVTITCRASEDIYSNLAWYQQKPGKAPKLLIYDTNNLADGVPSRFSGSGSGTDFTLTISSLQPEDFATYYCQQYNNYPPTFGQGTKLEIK
Response: 170000

Request: # repeat for h1A11.A7 (antibody, V domains shown) VH: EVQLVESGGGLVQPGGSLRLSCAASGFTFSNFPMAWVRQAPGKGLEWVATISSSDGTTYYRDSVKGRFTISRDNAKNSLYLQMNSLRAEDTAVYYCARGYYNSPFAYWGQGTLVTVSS VL: DIQMTQSPSSLSASVGDRVTITCRASQDIYINLAWYQQKPGKAPKLLIFDTSDLADGVPSRFSGSGSGTDFTLTISSLQPEDFATYYCQQYDYYPPTFGQGTKLEIK
Response: 158000

Request: # repeat for 37D10 rat monoclonal antibody (antibody, V domains shown) VH: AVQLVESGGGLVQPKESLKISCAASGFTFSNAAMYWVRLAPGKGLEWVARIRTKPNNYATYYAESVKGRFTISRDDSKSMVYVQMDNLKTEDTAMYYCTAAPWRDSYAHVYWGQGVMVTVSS VL: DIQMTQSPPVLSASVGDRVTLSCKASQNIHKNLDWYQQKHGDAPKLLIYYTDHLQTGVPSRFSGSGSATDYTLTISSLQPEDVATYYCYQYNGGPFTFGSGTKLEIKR
Response: 40000

Request: # repeat for h1A11.B4 (antibody, V domains shown) VH: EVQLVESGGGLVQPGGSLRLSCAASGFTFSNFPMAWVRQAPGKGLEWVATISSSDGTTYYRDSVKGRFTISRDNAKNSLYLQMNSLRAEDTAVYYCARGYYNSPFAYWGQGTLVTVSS VL: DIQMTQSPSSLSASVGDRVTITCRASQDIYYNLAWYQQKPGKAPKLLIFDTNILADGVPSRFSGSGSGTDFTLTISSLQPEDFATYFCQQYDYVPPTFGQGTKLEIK
Response: 143000

Request: # repeat for h1A11.C6 (antibody, V domains shown) VH: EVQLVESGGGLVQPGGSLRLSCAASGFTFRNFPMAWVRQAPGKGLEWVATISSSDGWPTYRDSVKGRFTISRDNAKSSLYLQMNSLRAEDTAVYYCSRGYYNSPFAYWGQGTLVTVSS VL: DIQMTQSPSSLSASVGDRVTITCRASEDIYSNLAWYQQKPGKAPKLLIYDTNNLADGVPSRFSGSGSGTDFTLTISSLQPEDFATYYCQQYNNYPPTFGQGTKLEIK
Response: 171000

Request: # repeat for h1A11.G3 (antibody, V domains shown) VH: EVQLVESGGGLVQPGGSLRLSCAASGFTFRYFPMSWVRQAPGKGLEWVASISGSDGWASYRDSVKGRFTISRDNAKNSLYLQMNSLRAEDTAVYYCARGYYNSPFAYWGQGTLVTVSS VL: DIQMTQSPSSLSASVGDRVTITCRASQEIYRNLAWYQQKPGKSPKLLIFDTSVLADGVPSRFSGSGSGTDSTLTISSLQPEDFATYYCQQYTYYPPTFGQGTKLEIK
Response: 99000

Request: # repeat for 15D6 rat monoclonal antibody (antibody, V domains shown) VH: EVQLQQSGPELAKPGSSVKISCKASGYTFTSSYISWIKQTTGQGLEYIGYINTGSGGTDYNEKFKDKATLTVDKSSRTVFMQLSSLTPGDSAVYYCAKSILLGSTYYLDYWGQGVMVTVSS VL: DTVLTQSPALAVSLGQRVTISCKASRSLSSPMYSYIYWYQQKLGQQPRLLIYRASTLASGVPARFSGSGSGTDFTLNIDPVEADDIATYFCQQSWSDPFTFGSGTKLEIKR
Response: 56000

Request: # repeat for 14A11 rat monoclonal antibody (antibody, V domains shown) VH: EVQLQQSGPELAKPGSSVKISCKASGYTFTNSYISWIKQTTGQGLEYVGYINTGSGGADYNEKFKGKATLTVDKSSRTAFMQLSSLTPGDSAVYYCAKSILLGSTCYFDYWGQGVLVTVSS VL: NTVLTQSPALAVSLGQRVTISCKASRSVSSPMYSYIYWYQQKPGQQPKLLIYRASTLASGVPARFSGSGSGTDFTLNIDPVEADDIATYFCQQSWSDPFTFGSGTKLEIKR
Response: 110000

Request: # repeat for h1A11.A12 (antibody, V domains shown) VH: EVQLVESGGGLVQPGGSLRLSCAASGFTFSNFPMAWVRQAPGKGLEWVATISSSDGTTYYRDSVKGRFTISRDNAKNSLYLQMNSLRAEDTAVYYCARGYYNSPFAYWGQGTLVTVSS VL: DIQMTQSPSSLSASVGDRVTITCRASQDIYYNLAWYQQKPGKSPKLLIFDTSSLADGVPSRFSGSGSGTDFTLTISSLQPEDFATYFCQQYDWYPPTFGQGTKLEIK
Response: 158000
